tested-on: T1, 4H570-bN
T1 chain: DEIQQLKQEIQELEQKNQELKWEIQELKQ
protocol-summary: two-hybrid library CCNG1;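 note: natural log of median RNA to DNA barcode read ratio; higher means stronger binding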
Please note: MET applies when interaction score is -0.6 or greater, and NOT MET applies otherwise.

Please review the following examples before continuing.
[[record]]
binder = "DENQQLKQENQELEQKIQELKWKIQELKQ [4H1710-bN]"
cat = "MET"

[[record]]
binder = "DKNQQLKQENQELKQKIQELKWEIQELEQ [4H3817-bN]"
cat = "NOT MET"

[[record]]
binder = "DKNQQLKQEIQELEQKIQELKWKNQELEQ [4H3631-bN]"
cat = "NOT MET"

[[record]]
binder = "DKNQQLKQKIQELEQENQELEWEIQELKQ [4H3858-bN]"
cat = "MET"

[[record]]
binder = "DKIQQLEQEIQELKQENQELKWKNQELEQ [4H2143-bN]"
cat = "MET"


Hi, just wondering whether DENQQLKQKIQELEQEIQELKWENQELKQ [4H1804-bN] shows interaction score of -0.6 or higher.
MET

Is the recorded value of interaction score equal to or greater than -0.6 for this binder? DENQQLEQKIQELKQEIQELEWENQELKQ [4H1348-bN]
MET

In plain terms: is recorded interaction score at least -0.6 for DKNQQLKQEIQELEQKIQELKWENQELKQ [4H3628-bN] ?
NOT MET

Dear colleague, could you confirm whether DENAQLEQKIAELKQENAELKWEIAQLEQ [4H1369-bA] has interaction score at or above -0.6?
MET

Is the recorded value of interaction score equal to or greater than -0.6 for this binder? DENQQLEQKIQELKQENQELKWKIQELEQ [4H1373-bN]
NOT MET

Source: paper PMC10397247
